Ref: the supplement of paper PMC10290057

Each item that follows carries a reported efficacy.
- Test system: HCT116
- assayInfo: efficacy (fitted maximal change in viability relative to DMSO control); higher = less cytotoxic (negative = loss of viability)
- reportedConditions: 48 h
Counter-ions that a name gives are not always drawn.
Entry rule: numbers only, all in %.

Ask | Give efficacy for this entry on HCT116: `CCOC\1=C(/C(=O)NC2=CC=C(OC3=C(Cl)C(=NC=C3)N)C(=C2)F)C(=O)N(\C=C1)C4=CC=C(F)C=C4`
Reply | -67.3

Ask | Using HCT116 as the test system, report measured efficacy of `Nc1nc(OCc2ccccc2)c2nc[nH]c2n1` .
Reply | -34.3

Ask | Report efficacy under test system HCT116 for `Cc1ccccc1C(=O)c1ccc(Nc2ccc(Br)cc2N)cc1Cl` .
Reply | -75.8

Ask | Report efficacy on HCT116 for this entry: `Cc1ccc(-c2cc(C(F)(F)F)nn2-c2ccc([S+](N)(=O)[O-])cc2)cc1`
Reply | -77.8

Ask | Lab note: record efficacy of `COC(=O)N1CC2(CC2)C[C@H](C(=O)NO)[C@H]1C(=O)N1CCN(c2ccccc2)CC1` tested on HCT116.
Reply | -17

Ask | Consider the molecule CCC(CC)C(c1ccc(Nc2nc3ccccc3s2)cc1)n1cncn1 (stereo not drawn) [Talarozole (R enantiomer)] tested on HCT116; state its efficacy.
Reply | -96.4

Ask | Write efficacy of O=C1[O][Pt]2([NH]C3CCCCC3[NH]2)[O]C1=O (stereo not drawn) ; system used: HCT116
Reply | -42.2

Ask | Param request: efficacy | system HCT116 | item OC[C@H]1O[C@@H]2[C@@H](OC\3=N\C(=N)\C=C/[N@@]23)[C@@H]1O [Cyclocytidine hydrochloride]
Reply | -59.3

----------
- Test system: HCT116
- assayInfo: efficacy (fitted maximal change in viability relative to DMSO control); higher = less cytotoxic (negative = loss of viability)
- reportedConditions: 48 h
# reported efficacy; entries follow
Report only the number, with the unit % understood.

INSERT INTO results (itemsmiles, measurement) VALUES
  ('COc1c(C)cc(NC(=O)c2nn(Cc3ccc(F)cc3)c3c2CN(C(=O)c2ccc[nH]2)C[C@]3(C)C(N)=O)cc1C', -35.1),
  ('O=C(NCCCNc1nc(Nc2cccc(CN3CCOCC3)c2)ncc1C1CC1)C1CCC1', -96.5);

Switching to the query record.
Ask | Determine from records and report efficacy for `Nc1nc2cc(-c3ccc4ncc(C(=O)N5CCOCC5)n4c3)ccc2o1`
Reply | -53.2

----------
- Tested on: HCT116
- assayInfo: efficacy (fitted maximal change in viability relative to DMSO control); higher = less cytotoxic (negative = loss of viability)
- reportedConditions: 48 h
readoutName: efficacy (%)
API: value field is a number in %; no unit string.

INSERT INTO results (itemsmiles, readoutname, measurement) VALUES
  ('Nc1nc(F)nc2c1ncn2[C@@H]1O[C@H](CO)[C@@H](O)[C@@H]1O', 'efficacy', -57.1),
  ('CC(C)c1cccc(C(C)C)c1O', 'efficacy', -8.33),
  ('Cc1cc(CN2CCN(c3c(Br)cnc4[nH]c(-c5ccc(N6CCN(C)CC6)cc5)nc34)CC2)no1', 'efficacy', -119),
  ('NCCCC[C@H](NC(=O)[C@@H](NC(=O)[C@H](Cc1c[nH]c2ccccc12)NC(=O)[C@H](CCCCN)NC(=O)[C@H](CCCCN)NC(=O)[C@H](Cc1c[nH]c2ccccc12)NC(=O)[C@H](Cc1c[nH]c2ccccc12)NC(=O)[C@H](CCCCN)NC(=O)[C@@H](N)CCCCN)C(c1ccccc1)c1ccccc1)C(N)=O', 'efficacy', -89.2),
  ('C[C@@H](Nc1ncnc2[nH]c(-c3ccc(O)cc3)cc12)c1ccccc1', 'efficacy', -84.7);

Turning now to a further record.
Ask | GET efficacy | system: HCT116 | item: `N[S+](=O)([O-])NCCNc1nonc1/C(=N/O)Nc1ccc(F)c(Br)c1`;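 note: Luminescence-based viability readout, five doses per compound, normalized against on-plate DMSO and empty-well controls, followed by dose-response curve fitting for every drug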
Reply | -25.2
